Target: FAAH (Mus musculus, UniProt O08914)
Construct: Proteomes (mouse brain membrane fraction or cell lysates); from tissue; host or cells: mouse brain membrane fraction (or cell lysates, not specified)
Sequence (O08914 whole entry): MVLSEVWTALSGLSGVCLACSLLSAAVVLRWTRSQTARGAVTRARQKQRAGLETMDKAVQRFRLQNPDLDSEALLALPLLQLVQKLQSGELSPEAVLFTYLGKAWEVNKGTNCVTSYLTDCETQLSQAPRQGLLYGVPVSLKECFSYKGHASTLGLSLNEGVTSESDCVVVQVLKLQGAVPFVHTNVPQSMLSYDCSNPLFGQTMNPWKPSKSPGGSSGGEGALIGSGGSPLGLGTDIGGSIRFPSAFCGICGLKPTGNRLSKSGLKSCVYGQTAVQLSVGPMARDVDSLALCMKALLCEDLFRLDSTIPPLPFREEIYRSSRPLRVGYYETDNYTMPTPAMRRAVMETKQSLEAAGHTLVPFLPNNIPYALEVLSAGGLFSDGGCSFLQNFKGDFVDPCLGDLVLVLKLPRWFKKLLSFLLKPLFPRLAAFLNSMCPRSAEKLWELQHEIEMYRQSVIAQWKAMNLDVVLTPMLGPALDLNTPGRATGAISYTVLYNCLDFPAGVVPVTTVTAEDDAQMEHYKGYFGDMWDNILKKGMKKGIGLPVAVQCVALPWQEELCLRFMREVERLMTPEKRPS
Test: In vitro competitive activity-based protein profiling (gel-based, FP-Rh or HT-01 probe)
Assay type: biochemical
Conditions: mouse brain membrane fraction or cell lysates, 30 min preincubation at 37° C.; read-out: Mouse (IC50 value, nM) FAAH
Quick list: IC50 per entry.
reported endpoint: IC50

molecule | reported endpoint | result
O=C(N1CCN(Cc2ccccc2Cl)CC1)n1cc(C(F)(F)F)cn1 [Example 275] | IC50 | < 100 nM
N#Cc1cnn(C(=O)N2CCCCCC2)c1 [Example 292] | IC50 | 100 to 1000 nM
Cc1cc(-c2ccccc2)ccc1CN1CCN(C(=O)n2cc(C(F)(F)F)cn2)CC1 [Example 142] | IC50 | < 100 nM
CN(Cc1cccc(-c2ccncc2)c1)C(=O)n1cc(-c2ccccc2)cn1 [Example 219] | IC50 | < 100 nM
O=C(N1CCN(C(c2ccc(Cl)cc2)c2ccc(Cl)cc2)CC1)n1cc(F)cn1 [Example 121] | IC50 | > 1000 nM
O=C(N1CCN(Cc2ccc(Cl)cc2N2CCCC2)CC1)n1cc(Cl)cn1 [Example 50] | IC50 | 100 to 1000 nM

====

Quick list: inhibition at 1 µM per entry.
Biological target: ABHD6 (Mus musculus, UniProt Q8R2Y0)
Construct: Proteomes (mouse brain membrane fraction or cell lysates); from tissue; host or cells: mouse brain membrane fraction (or cell lysates, not specified)
Sequence (Q8R2Y0 1-336): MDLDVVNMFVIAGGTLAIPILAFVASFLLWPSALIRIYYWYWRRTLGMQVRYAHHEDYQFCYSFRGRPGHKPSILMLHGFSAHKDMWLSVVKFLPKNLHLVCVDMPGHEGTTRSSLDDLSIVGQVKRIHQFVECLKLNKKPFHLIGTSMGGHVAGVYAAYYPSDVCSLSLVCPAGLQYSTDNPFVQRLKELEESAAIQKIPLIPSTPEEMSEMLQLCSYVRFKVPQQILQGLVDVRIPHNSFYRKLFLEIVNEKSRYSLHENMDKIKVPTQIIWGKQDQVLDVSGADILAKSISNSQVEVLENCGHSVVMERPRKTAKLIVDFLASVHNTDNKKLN
Test: In vitro competitive activity-based protein profiling (gel-based, FP-Rh or HT-01 probe)
Format: biochemical
Details: 1 μM inhibitor; read-out: % Inhibition at 1 μM, C = ABHD6
reported endpoint: inhibition at 1 µM

smiles code | reported endpoint | result
O=C(N1CCN(Cc2ccc(Cl)cc2N2CCC3(CCOCC3)C2)CC1)n1cc(Cl)cn1 | inhibition at 1 µM | > 75%
O=C(c1cnn(C(=O)N2CCN(Cc3ccncn3)CC2)c1)N1CCCC1 | inhibition at 1 µM | < 25%
CN(CCN(C)S(C)(=O)=O)C(=O)n1cc(C(F)(F)F)cn1 | inhibition at 1 µM | < 25%
CN(CCN(C)C(=O)n1cc(C(F)(F)F)cn1)C(=O)c1ccccc1 | inhibition at 1 µM | < 25%
N#Cc1cnn(C(=O)N2CCCC2)c1 | inhibition at 1 µM | < 25%
CCN(Cc1cccc(C)c1)C(=O)n1cc(Cl)cn1 | inhibition at 1 µM | < 25%
O=C(c1cnn(C(=O)N2CCN(Cc3ccncc3)CC2)c1)N1CCOCC1 | inhibition at 1 µM | 25 to 75%
O=C(N1CCN(Cc2cccc(Oc3ccccc3)c2)CC1)n1cc(Cl)cn1 | inhibition at 1 µM | > 75%
N#Cc1cnn(C(=O)N2CCN(c3ccccc3)CC2)c1 | inhibition at 1 µM | > 75%
